Would you mind telling me the reported pIC50 of each entry?
- test_system: GPR6 (Homo sapiens, UniProt P46095)
- Construct: expressed in transfected cells; host or cells: CHO cells
- Sequence (P46095 whole entry): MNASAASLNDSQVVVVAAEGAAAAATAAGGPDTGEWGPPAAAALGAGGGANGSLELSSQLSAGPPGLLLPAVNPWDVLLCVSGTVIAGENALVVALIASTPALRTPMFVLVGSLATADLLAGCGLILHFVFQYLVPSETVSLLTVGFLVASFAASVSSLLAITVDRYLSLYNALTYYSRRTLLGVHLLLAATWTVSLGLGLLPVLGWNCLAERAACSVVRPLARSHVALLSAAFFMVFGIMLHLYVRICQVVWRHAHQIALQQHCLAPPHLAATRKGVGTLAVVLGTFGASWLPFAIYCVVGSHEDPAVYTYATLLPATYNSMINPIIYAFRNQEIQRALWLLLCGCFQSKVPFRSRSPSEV
- protocol_summary: GPR6 antagonist functional cAMP assay (LANCE Ultra cAMP TR-FRET, CHO cells stably expressing GPR6)
- Assay type: cell-based
- measurement_parameters: CHO cells stably expressing GPR6, cAMP assay (Example 24)
pIC50: −log10 of the molar value.

molecule: CCOc1cncc(-c2nc3c(nc2N2CCC(Oc4ccc(F)cc4F)CC2)CCN(C(C)=O)C3)n1
pIC50: 4.52 to 6.00
//
molecule: COCCOc1cc2nc(N3CCC(Oc4ccc(F)cc4F)CC3)c(-c3cnn(C)c3)nc2cn1
pIC50: 6.00 to 7.00
//
molecule: CC(=O)N1CCc2nc(N3CCN(Cc4ccc(F)cc4F)C[C@H]3C)c(-c3cnn(C)c3)nc2C1 (single isomer, unassigned)
pIC50: 4.52 to 6.00
//
molecule: Cn1cc(-c2nc3cn(C)c(=O)cc3nc2N2CCC(Oc3ccc(F)cc3F)CC2)cn1
pIC50: 4.52 to 6.00

Your task in this section: give pIC50 for each listed record.
1. CC(=O)N1CCc2nc(N3CCC(Oc4ccc(F)cc4F)CC3)c(-c3ccc[nH]c3=O)nc2C1
2. CC(=O)N1CCc2nc(N3CCC(Oc4ccc(F)cc4F)CC3)c(-c3cccc(CO)n3)nc2C1

Marked response:
["≤ 4.52", "4.52 to 6.00"]

Exam item: Give the observed pIC50 of CCn1cc(-c2nc3cnc(C(O)C(C)(C)O)cc3nc2N2CCC(Oc3cc(Cl)ccc3Cl)CC2)cn1 (stereo not shown) for GPR6 (Homo sapiens, UniProt P46095).
Marked response: 6.00 to 7.00

* * *

- test_system: GPR6 (Homo sapiens)
- Construct: expressed in transfected cells; host or cells: CHO cells
- protocol_summary: GPR6 antagonist functional cAMP assay (LANCE Ultra cAMP TR-FRET, CHO cells stably expressing GPR6)
- Format: cell-based
- measurement_parameters: procedure of Example 24
Would you mind telling me the reported IC50 of each entry?

Your task in this section: give IC50 for each listed record.
1. CC(=O)N1CCc2nc(N3CCN(Cc4cc(Cl)ccc4F)CC3)c(-c3cnn(C)c3)nc2C1 [Compound 349]
2. CCn1cc(-c2nc3cnc([C@@](C)(O)C(C)(C)O)cc3nc2N2CCC(Oc3ccc(F)cc3F)CC2)cn1 (single isomer, unassigned) [Compound 736]
3. COC[C@H](O)c1cc2nc(-c3cnn(C)c3)c(N3CCC(Oc4ccc(F)cc4F)CC3)nc2cn1 (single isomer, unassigned) [Compound 681]
4. CC(C)(O)[C@](C)(O)c1cc2nc(N3CCN(Cc4ccc(F)cc4F)CC3)c(-c3cnn(C(F)F)c3)nc2cn1 (single isomer, unassigned) [Compound 694]
5. COCC(=O)N1CCc2nc(N3CCC(Oc4ccc(F)cc4F)CC3)c(-c3ccc(F)c(N)n3)nc2C1 [Compound 628]

Marked response:
1: < 100 nM; 2: 100 to 1000 nM; 3: < 100 nM; 4: 100 to 1000 nM; 5: 100 to 1000 nM

* * *

Would you mind telling me the reported IC50 of each entry?
- test_system: GPR3 (Homo sapiens, UniProt P46089)
- Construct: expressed in transfected cells; host or cells: CHO cells
- Sequence (P46089 whole entry, species assumed): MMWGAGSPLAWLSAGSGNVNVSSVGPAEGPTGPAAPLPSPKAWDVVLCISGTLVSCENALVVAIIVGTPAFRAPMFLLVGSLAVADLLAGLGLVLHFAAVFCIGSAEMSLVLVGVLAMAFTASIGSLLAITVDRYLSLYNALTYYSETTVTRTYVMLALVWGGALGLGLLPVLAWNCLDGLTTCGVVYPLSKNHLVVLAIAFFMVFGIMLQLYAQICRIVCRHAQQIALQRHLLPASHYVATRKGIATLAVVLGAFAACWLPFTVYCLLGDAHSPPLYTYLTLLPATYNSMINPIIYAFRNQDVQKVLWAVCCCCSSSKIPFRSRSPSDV
- protocol_summary: GPR3 antagonist functional cAMP assay (LANCE Ultra cAMP TR-FRET, CHO cells stably expressing GPR3)
- Format: cell-based
- measurement_parameters: procedure of Example 24

molecule: COC(=O)/C=C/c1cc2nc(N3CCC(Oc4ccc(F)cc4F)CC3)c(-c3cnn(C)c3)nc2cn1
test_system: GPR3 (Homo sapiens, UniProt P46089)
outcome_measure: IC50
reported_measurement: 1000 to 30000 nM

molecule: C=CC(=O)N1CCc2nc(N3CCC(Oc4ccc(F)cc4F)CC3)c(-c3cnn(CC)c3)nc2C1
test_system: GPR3 (Homo sapiens, UniProt P46089)
outcome_measure: IC50
reported_measurement: 1000 to 30000 nM

molecule: CC(=O)N1CCc2nc(N3CCCC(Oc4ccccc4)C3)c(-c3cnn(C)c3)nc2C1 (stereo not shown)
test_system: GPR3 (Homo sapiens, UniProt P46089)
outcome_measure: IC50
reported_measurement: 1000 to 30000 nM

molecule: Cn1cc(-c2nc3cc([C@H](O)C(C)(C)O)ncc3nc2N2CCC(=Cc3ccc(F)cc3F)CC2)cn1 (single isomer, unassigned)
test_system: GPR3 (Homo sapiens, UniProt P46089)
outcome_measure: IC50
reported_measurement: 100 to 1000 nM

molecule: CC(=O)N1CCc2nc(N3CCN(Cc4ccc(F)cc4C)CC3)c(-c3cnn(C)c3)nc2C1
test_system: GPR3 (Homo sapiens, UniProt P46089)
outcome_measure: IC50
reported_measurement: 1000 to 30000 nM

molecule: CC(C)(O)[C@](C)(O)c1cc2nc(-c3cnn(CF)c3)c(N3CCN(Cc4ccccc4F)CC3)nc2cn1 (single isomer, unassigned)
test_system: GPR3 (Homo sapiens, UniProt P46089)
outcome_measure: IC50
reported_measurement: 1000 to 30000 nM

Exam item: Please give measured IC50 of the following entry: COCC(=O)N1CCc2nc(N3CCC(Oc4ccc(F)cc4F)CC3)c(-c3ccc(F)c(N)n3)nc2C1
Marked response: 1000 to 30000 nM
